Cited source: paper PMC3792216

targetOrSystem: estrogen receptor beta (hERβ) (Homo sapiens, UniProt Q92731)
Sequence (Q92731 whole entry): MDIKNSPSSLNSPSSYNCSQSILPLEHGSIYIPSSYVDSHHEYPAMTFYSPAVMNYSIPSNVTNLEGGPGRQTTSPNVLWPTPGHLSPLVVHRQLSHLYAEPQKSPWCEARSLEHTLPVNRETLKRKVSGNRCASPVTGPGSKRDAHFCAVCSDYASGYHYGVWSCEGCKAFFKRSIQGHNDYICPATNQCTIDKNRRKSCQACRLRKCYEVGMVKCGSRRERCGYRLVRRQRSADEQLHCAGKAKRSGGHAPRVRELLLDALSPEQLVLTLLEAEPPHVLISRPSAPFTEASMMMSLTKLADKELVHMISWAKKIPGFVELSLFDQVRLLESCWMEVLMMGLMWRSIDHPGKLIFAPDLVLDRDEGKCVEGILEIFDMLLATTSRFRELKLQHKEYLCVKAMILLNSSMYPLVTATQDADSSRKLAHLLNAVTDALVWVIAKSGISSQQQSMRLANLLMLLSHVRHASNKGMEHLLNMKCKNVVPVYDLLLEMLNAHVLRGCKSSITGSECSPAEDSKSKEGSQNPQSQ
measuredAttribute: pIC50
Just so you know, pIC50 here is -log10 of the concentration in molar units; reply with that number alone.

## Input Param item = CC(C)=CCc1cc2c(cc1O)O[C@H](c1ccc(O)cc1)CC2=O [bavachin] ; retrieve measured pIC50.
## Output 4.42

====

targetOrSystem: UniProt:P03372
Sequence (P03372 whole entry): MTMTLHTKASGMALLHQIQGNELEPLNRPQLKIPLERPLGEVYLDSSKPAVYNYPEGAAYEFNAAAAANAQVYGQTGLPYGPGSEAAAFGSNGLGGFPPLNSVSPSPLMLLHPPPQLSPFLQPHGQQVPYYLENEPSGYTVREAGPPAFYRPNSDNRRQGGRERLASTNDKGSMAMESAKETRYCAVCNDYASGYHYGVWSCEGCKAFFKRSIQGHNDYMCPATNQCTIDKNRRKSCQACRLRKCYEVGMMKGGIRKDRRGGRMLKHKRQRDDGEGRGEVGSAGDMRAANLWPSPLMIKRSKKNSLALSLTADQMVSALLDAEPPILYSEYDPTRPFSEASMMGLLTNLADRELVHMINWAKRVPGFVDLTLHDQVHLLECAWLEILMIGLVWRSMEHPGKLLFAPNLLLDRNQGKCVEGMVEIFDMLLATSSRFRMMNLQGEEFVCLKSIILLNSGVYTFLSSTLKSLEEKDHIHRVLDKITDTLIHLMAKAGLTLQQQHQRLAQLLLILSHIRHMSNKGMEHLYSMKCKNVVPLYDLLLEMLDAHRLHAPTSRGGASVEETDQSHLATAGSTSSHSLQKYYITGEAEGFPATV
measuredAttribute: pIC50
Just so you know, pIC50 here is -log10 of the concentration in molar units; reply with that number alone.

## Input What value of pIC50 on UniProt:P03372 does CC(C)=CCc1cc2c(cc1O)O[C@H](c1ccc(O)cc1)CC2=O [bavachin] have?
## Output 4.18
